target: Sigma non-opioid intracellular receptor 1 (Rattus norvegicus, UniProt Q9R0C9); test: Tested for its binding affinity towards sigma-1 site in rat brain using E3H1-(+)-SKF 10047 as radioligand in rat brain; format: tissue-based
Sequence (Q9R0C9 whole entry): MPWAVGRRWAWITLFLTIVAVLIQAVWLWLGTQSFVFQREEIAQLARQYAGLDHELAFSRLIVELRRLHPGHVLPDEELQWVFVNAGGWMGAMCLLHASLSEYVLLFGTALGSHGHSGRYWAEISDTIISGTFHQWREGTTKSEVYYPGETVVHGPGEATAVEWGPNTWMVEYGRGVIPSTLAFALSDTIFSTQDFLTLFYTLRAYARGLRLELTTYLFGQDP
Reported pKi by item:
Expect pKi as a plain number equal to -log10 of the molar concentration.

Example cases with answers are listed next.
Determine from records and report pKi for CCN(CC)CCOCCNC(=O)C1(c2ccccc2)CCCC1 6.67

Please report the measured pKi for CCN(CC)CCOCCOCC1(c2ccccc2)CCCC1 7.57

Return pKi for the following compound: CCN(CC)CCOCOC(=O)C1(c2ccc(Cl)c(Cl)c2)CCCCC1 7.66

Answer with reported pKi of CCN(CC)CCOCCNCC1(c2ccccc2)CCCC1 6.05

Tell me pKi reported for CCN(CC)CCOCCOC(=O)C1(c2ccccc2)CCCCC1 7.47

Further cases:
Give reported pKi value for O=C(OCOCCN1CCOCC1)C1(c2ccc(Cl)c(Cl)c2)CCCCC1 7.41

Specify reported pKi for the compound shown: CCN(CC)CCOCNC(=O)C1(c2ccc(Cl)c(Cl)c2)CCCCC1 7.57

Quote pKi reported for CCN(CC)CCOCCOC(=O)C1(c2ccc(OC)cc2)CCCC1 please. 7.23

Given the compound CCN(CC)CCOCCOC(=O)C(C)c1ccccc1 (stereo not given) , write its reported pKi. 7.40

Please report the measured pKi for O=C(NCOCCN1CCOCC1)C1(c2ccc(Cl)c(Cl)c2)CCCCC1 7.49
